The values you see were collected from paper PMC9482650.

# TESTED SYSTEM: GRID2IP_1, A4D2P6
# Sequence (A4D2P6 1-87): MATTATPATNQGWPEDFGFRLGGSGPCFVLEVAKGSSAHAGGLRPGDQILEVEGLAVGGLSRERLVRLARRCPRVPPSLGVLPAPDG
# ASSAY COMMENT: holdup assay
# Parameters: key: below the threshold = too weak to quantify, mostly under pKd 3.1 to 4
# CONDITION DETAILS: plain residues with an end cap or a label only (N-terminal biotin on a linker: ttds)
RECORDED METRIC: pKd

Please review the following examples before continuing.
BINDER	OBS VALUE
ERKLSSESQV [LRP4, O75096]	below the threshold
SRPQRTQTQV [HPV67-E6, A4U7F2]	below the threshold
TVASEKESVM [SLC1A5, Q15758]	below the threshold
GQDSREETQL [KCNT2, Q6UVM3]	below the threshold
SSRTRRETQL [HPV16-E6, P03126]	below the threshold

[ask] Report pKd for STLTIFETAL [ABCC4, O15439] please.
[reply] 3.48

[ask] // returns reported pKd for input PKTPPTDTSV [KIR3DL3, Q8N743]
[reply] below the threshold

[ask] Entry VLRLQSETSV [VANGL1, Q8TAA9] has what pKd?
[reply] below the threshold
